Values compiled from patent US20260272878A1.

target-entity: ADAR1p150 (Homo sapiens)
Sequence (P55265 1-1226): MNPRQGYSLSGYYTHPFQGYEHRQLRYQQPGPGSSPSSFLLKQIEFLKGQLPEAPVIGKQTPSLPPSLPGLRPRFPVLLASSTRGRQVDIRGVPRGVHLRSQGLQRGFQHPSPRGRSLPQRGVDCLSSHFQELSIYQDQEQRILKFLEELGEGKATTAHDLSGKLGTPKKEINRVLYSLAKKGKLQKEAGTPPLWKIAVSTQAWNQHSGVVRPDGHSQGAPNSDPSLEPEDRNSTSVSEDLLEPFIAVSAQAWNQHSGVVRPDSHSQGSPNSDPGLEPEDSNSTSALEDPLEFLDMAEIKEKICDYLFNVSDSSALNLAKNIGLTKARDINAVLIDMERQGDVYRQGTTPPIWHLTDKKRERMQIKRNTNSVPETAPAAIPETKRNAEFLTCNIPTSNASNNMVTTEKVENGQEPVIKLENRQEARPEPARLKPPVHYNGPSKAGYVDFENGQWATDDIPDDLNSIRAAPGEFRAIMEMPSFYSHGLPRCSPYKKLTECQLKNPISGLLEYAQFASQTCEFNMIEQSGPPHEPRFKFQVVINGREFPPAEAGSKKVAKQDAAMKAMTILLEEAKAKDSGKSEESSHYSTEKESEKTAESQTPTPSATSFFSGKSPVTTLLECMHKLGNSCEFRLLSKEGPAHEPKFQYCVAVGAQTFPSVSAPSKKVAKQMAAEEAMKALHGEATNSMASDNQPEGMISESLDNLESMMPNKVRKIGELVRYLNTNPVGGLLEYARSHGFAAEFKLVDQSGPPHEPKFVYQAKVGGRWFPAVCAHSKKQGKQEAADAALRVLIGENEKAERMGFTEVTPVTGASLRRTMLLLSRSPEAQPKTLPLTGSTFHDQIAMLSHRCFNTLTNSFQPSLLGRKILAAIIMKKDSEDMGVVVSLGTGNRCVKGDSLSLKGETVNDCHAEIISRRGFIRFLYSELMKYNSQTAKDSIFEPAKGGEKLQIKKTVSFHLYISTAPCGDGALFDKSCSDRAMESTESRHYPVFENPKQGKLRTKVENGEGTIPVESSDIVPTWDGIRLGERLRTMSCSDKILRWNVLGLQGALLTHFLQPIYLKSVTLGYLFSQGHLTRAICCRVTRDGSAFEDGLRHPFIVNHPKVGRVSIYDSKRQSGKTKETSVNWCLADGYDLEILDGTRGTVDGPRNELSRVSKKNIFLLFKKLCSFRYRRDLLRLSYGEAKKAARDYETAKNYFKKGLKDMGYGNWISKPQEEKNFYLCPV
pIC50: −log10 of the molar value.
measure-name: pIC50

Noted for N#Cc1ccc(NC(=O)c2c(Cl)c3ccccc3n2CO)cc1 [ADAR1i-124] : its pIC50 reads 4.70 to 5.00

###

target-entity: ADAR1p110-WT (Homo sapiens, UniProt P55265)
Construct: made in house; host or cells: Sf9 cells (baculovirus)
Sequence (P55265 1-931 isoform P55265-5): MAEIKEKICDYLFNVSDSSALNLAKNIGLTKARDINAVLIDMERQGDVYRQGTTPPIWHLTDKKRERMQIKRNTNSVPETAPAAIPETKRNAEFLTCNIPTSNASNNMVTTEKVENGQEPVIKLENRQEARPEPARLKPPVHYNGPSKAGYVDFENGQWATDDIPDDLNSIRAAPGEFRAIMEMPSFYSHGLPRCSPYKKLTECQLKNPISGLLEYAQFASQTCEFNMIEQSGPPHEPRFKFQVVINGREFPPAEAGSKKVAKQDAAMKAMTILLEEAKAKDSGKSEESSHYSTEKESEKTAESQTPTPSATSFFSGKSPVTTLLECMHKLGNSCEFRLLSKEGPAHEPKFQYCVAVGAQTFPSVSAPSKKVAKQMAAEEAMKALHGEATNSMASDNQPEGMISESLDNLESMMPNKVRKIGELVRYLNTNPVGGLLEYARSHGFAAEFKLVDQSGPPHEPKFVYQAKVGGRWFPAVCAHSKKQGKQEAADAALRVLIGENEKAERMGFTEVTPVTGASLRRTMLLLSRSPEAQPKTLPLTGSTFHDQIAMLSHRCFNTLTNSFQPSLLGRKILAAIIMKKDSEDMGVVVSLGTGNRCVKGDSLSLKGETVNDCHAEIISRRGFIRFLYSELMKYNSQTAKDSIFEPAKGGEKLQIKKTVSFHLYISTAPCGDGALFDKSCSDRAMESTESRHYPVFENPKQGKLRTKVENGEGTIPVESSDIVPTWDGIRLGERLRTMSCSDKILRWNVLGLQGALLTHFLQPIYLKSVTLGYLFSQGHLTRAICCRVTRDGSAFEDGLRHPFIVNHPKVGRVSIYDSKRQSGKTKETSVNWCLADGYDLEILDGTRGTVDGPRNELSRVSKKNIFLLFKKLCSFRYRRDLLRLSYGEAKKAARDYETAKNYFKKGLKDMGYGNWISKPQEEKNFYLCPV
experiment-notes: Biacore SPR binding to ADAR1p110-WT
measure-name: Binding to ADAR1p110-WT

Consider the reported Binding to ADAR1p110-WT for these compounds:
N#Cc1ccc(NC(=O)c2[nH]c3ccccc3c2Cl)cc1 : did not bind
N#Cc1ccccc1NC(=O)c1sc2ccccc2c1Cl : direct binding
N#Cc1ccc(NC(=O)c2nc3ccccc3[nH]2)cc1 : did not bind
N#Cc1ccc(NC(=O)c2nc3c(N)ncnc3[nH]2)cc1 : did not bind
N#Cc1ccc(NC(=O)c2sc3ccccc3c2Cl)cc1 : direct binding
N#Cc1ccc(NC(=O)c2c(Cl)c3ccccc3n2CO)cc1 : direct binding

Noted for N#Cc1ccc(NC(=O)c2cc3ccccc3s2)cc1 : its Binding to ADAR1p110-WT reads did not bind

###

experiment-notes: Half-life in culture media by loss of cancer cell killing activity
Type: in vitro ADME
study-conditions: determined by loss of cancer cell killing activity (data not shown), read-out: t1/2 in the culture media (converted)
measure-name: half-life

Noted for N#Cc1ccc(NC(=O)c2c(Cl)c3ccccc3n2CO)cc1 : its half-life reads ~12 h
